Molecular target: T1, human MAdCAM expressed on cells (human, UniProt Q13477 19-382)
T1 construct: whole, on cells; also called MADCAM1
T1 sequence (looked up): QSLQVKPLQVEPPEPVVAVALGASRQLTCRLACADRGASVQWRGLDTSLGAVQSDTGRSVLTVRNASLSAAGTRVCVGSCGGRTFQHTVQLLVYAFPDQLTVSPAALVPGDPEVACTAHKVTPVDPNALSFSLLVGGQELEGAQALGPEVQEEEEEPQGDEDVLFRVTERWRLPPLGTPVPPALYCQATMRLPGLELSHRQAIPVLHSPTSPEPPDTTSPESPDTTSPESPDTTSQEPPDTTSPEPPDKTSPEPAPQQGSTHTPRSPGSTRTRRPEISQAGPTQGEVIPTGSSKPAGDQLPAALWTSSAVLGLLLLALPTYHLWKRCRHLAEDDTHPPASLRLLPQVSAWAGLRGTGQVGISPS
Assay: cell binding
property name: binding result

[
  {
    "binder": "MAdCAM antibody Clone ID 6 of Table 7 (IgG) (antibody, V domains shown, IgG format) VH: EVQLLESGGGLVQPGGSLRLSCAASGFTFNNYAFHWVRQAPGKGLEWVSRINSYGTSTTYADSVKGRFTISRDNSKNTLYLQMNSLRAEDTAVYYCAREGPVAGYWYFDLWGQGTLVTVSS VL: DIQMTQSPSSLSASVGDRVTITCRASQIIGTNLAWYQQKPGKAPKLLIYGASSLQSGVPSRFSGSGSGTDFTLTISSLQPEDFATYYCQQSYRLPFTFGQGTKVEIK",
    "observed measurement": "binds"
  },
  {
    "binder": "MAdCAM antibody Clone ID 25 of Table 7 (IgG) (antibody, V domains shown, IgG format) VH: EVQLLESGGGLVQPGGSLRLSCAASGFTFSNAWMSWVRQAPGKGLEWVSTIVGNGGATYYADSVKGRFTISRDNSKNTLYLQMNSLRAEDTAVYYCARDNPLRWQGMDVWGQGTLVTVSS VL: DIQMTQSPSSLSASVGDRVTITCRASQDISNYLNWYQQKPGKAPKLLIYAASSLQSGVPSRFSGSGSGTDFTLTISSLQPEDFATYYCQQSYSIPPTFGPGTKVDIK",
    "observed measurement": "binds"
  },
  {
    "binder": "MAdCAM antibody Clone ID 16 of Table 7 (IgG) (antibody, V domains shown, IgG format) VH: EVQLLESGGGLVQPGGSLRLSCAASGFTFDDYAMHWVRQAPGKGLEWVSYIDASGTTIYYADSVKGRFTISRDNSKNTLYLQMNSLRAEDTAVYYCAKDQAAAGYWYFDLWGRGTLVTVSS VL: DIQMTQSPSSLSASVGDRVTITCQASQDISNYLNWYQQKPGKAPKLLIYKASTLESGVPSRFSGSGSGTDFTLTISSLQPEDFATYYCQQSYSTPITFGQGTRLEIK",
    "observed measurement": "binds"
  }
]
